target: T1, cynomolgus monkey CD3 expressed on cyno primary T cells (cynomolgus monkey, UniProt Q95LI5 22-198; Q95LI8 22-171; Q95LI7 23-181); assay: flow cytometry, 25 nM, cyno primary T cells
T1 construct: whole, on cells; CD3 complex on purified cynomolgus monkey CD3 pan T cells; also called cyno CD3
T1 sequence (Q95LI5 22-198, chain 1 of 3): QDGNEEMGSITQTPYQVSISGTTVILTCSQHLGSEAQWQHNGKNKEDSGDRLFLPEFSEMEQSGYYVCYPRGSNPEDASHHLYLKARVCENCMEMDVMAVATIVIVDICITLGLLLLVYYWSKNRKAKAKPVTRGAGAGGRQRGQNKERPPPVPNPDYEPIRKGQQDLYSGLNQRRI
T1 sequence (Q95LI8 22-171, chain 2 of 3): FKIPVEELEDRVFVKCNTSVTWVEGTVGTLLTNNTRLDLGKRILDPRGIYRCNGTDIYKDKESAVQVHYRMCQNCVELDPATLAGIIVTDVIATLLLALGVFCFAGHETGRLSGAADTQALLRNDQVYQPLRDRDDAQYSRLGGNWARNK
T1 sequence (Q95LI7 23-181, chain 3 of 3): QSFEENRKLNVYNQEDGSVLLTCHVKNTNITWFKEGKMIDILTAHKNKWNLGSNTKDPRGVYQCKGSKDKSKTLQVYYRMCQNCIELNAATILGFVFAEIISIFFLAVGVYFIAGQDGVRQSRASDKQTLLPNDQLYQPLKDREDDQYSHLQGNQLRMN
Readout Name: Binding (FOI)
Answer with a number only, understood to be in FOI.

Reference set (5 entries):
Binder	Unit Annotation	Binding (FOI)
mAb 177 (antibody, V domains shown, VH/VL only; the printed VL holds a letter U) VH: EVQLVESGGGLVQPGMSLRLSCAASGFTFDDYTMHWVRQSPGKGLEWVAGISWNSGTIGYGDSMKGRFTISRDNAKNSLDLQMNSLRVEDTALYYCAKDTSGYGHYYYYFMDVWGKGTTVTVSS VL: DIQMTQSPSSLSASIGDRVSITCRTSQIINNYLNWYQQKPGKAPKLLIYSASSLQSGVPSRFSGSGSGTDFTLTLSSLQPEDFATYFCQQSYNFPITFGQGTRLELK	FOI	45.1
mAb 176 (antibody, V domains shown, VH/VL only) VH: EVELVESGGGLVQPGRSLRLSCAASGFKFDDYTMHWVRLPPGKGLEWVSGISWNSGTIDYGDSVKGRFTISRDNAKNSLYLQMNSLRVEDTALYYCAKDTSGYGHYFYYYMDVWGKGTTVTVSS VL: DIQMTQSPSSLSASIGDRVSITCRTSQIINNYLNWYQQKPGKAPKVLIYSASSLQSGVPSRFSGSGSGTDFTLTINSLQPEDFATYYCQQSYNFPITFGQGTRLELK	FOI	34
mAb 171 (antibody, V domains shown, VH/VL only) VH: EVQLVESGGGLVQPGRSLRLSCAASGFTFADYTMHWVRQAPGQGLEWVSGISWNSGSIDYADSVKGRFIISRDNAKKTLYLQMNSLRAEDTALYYCAKDSSGYGHYYFYYLDVWGKGTTVTVSS VL: EIVMTQSPATLSVSPGERATLSCRASQSVSSNLAWYQQKPGQAPRLLIYSTSTRATGIPARFSGSRSGTEFTLTISSLQSEDSAVYYCQQYNNWPHFGQGTRLEIK	FOI	20.1
mAb 179 (antibody, V domains shown, VH/VL only) VH: EVQLVESGGGLVQPGRSLRLSCAASGFTFDDYTMHWVRQTPGKGLEWVSDISWNSGSIGYADSVKGRFTISRDNAKNTLYLQMNSLRAEDTALYYCVKDSSGYGHYLYYYMDVWGKGTTVTVSS VL: DIQMTQSPSSLSASVGDRVTITCRASQSIRNYLNWYQQSPGRAPKLLIFSASSLQSGVPSRFSGSGSGTDFTLTISSLQPEDFVTYYCQQRYSTPITFGQGTRLEIK	FOI	54.2
mAb 178 (antibody, V domains shown, VH/VL only) VH: EVQLVESGGGLVQPGRSLRLSCAASGFTFDDYTMHWVRQAPGKGLEWVSDISWNSGTIGYADSVKGRFTISRDNAKNSLYLQMNSLRAEDTALYYCVKDSSGYGHYYKYYMDVWGKGTTVTVSS VL: DIQMTQSPSSLSASVGDRVTITCRASQSISNYLNWYQQKAGKVPKVLIYGSSSLQSGVPSRFSGSGSGTDFTLTISSLQPEDFASYYCQQTYSSPLTFGGGTKVDFK	FOI	158

Next:
Input line: Bench note: what Binding (FOI) did mAb 180 (antibody, V domains shown, VH/VL only) VH: EVNLVESGGGLVQPGRSLRLSCAASGFTFDDYTMHWVRQVPGKGLEWVSNISWNSGSLGYADSVKGRFTISRDNAKDSLYLQMNSLRVEDTALYYCAKDSSGYGHYNSYYMDVWGKGTTVTVSS VL: DIQMTQSPSSLSASVGDRVTITCRASQSIRNYLNWYQQKPGKAPKVLIYSASSLQSGVPSRFSGSGSGTDFTLTISSLQPEDFASFYCQQTYSTPITFGQGTRLEIK show?
Output line: 90.2
